# Target entity: NADPH oxidase 2 (Homo sapiens)
# Assay name: compounds shifting NOX2 Amplex Red fluorescence – cell-based, HEK293-NOX2, PMA-stimulated, NOX inhibitor project, primary screen (AID 1159); note: test concentration not given here
# Measurement setup: 45 min, higher = more signal, called active from +8 up or from −8 down
Test readout: z-score
Please give only the number in your answer, with no unit.

Reference set (6 entries):
Compound	Test readout	Recorded result
O=C(N1CCOCC1)[C@@]1(Cc2ccccc2)COC(c2ccc(OCCCO)cc2)=N1	z-score	-2.33
O=C(NCC(O)CO)[C@@]1(CCS(=O)(=O)c2ccccc2)N=C(c2ccc(OCCCO)cc2)O[C@H]1c1ccccc1 (some centres not stated)	z-score	-0.356
CCCN1C(=O)[C@]2(CCC(=O)OC(C)(C)C)N=C(c3ccc(OCCCO)cc3)O[C@@H]2c2ccccc21	z-score	-3.07
C=C(/C(=C/C[C@@H](OC(C)=O)c1cccc(OCCO)c1)c1cnc2ccccc2c1)C(C)C	z-score	-1.71
O=C1OCCC=C[C@H]2OC34C=CCN(c5ccc6ccccc6c5)C(=O)[C@H]3N(CCO)C(=O)[C@@H]4C12 (some centres not stated)	z-score	1.47
O=C1O[C@@H](c2ccccc2)[C@@H](c2ccccc2)N2[C@@H](c3ccc(OCCO)cc3)[C@]3(C(=O)Nc4ccc(C#CC5(O)CCCCCC5)cc43)[C@@H](C(=O)Nc3nc4ccccc4s3)[C@H]12	z-score	1.2

Prompt line: Determine its reported z-score: O=C1O[C@@H](c2ccccc2)[C@@H](c2ccccc2)N2[C@@H](c3ccc(OCCO)cc3)[C@]3(C(=O)Nc4ccc(C#CCCO)cc43)[C@@H](C(=O)O)[C@H]12
Response line: 2.08

---

Item-by-item account of composite z-score
# Test system: Inhibin beta A chain (activin A)
# Assay name: small molecules binding activin A – biochemical, small-molecule microarray, 635 nm fluorescence scan, primary screen (AID 1107);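 note: mouse activin A protein probed at 4.33 µg/mL on printed slides; score merges bound-protein fluorescence near 667 nm with spot signal-to-noise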
# Measurement setup: INHBA, higher = more signal

Reference set (5 entries):
Compound	composite z-score
O=C1NC(=O)C2C1C=CC(C(O)c1ccc(B(O)O)cc1)N2Nc1ccc(Cl)cc1Cl (configuration not stated)	0.948
COC(=O)[C@@]1(Cc2ccccc2)[C@H]2c3cc(C(=O)N4CCCC4)n(Cc4ccc(OC)c(OC)c4)c3C[C@H]2CN1C(=O)c1ccccc1	0.763
O=C1OCCC=C[C@H]2OC34C=CCN(c5ccc6ccccc6c5)C(=O)[C@H]3N(CCO)C(=O)[C@@H]4C12 (some centres not stated)	-0.666
C=CCC(OC(C)=O)[C@@H]1[C@@H](N(Cc2cc3ccccc3o2)C(=O)Cc2ccc(OC)cc2)c2cc(OCCCO)ccc2N1C(=O)c1ccc2ccccc2n1 (some centres not stated)	1.42
COC(=O)[C@]1(Cc2ccccc2)N=C(c2ccc(OCCCO)cc2)O[C@@H]1c1ccccc1CN=[N+]=[N-]	0.702

Prompt line: Determine its reported composite z-score: CC(=O)c1ccc(C(O)C2C=CC3C(=O)N(c4ccccc4)C(=O)C3N2Nc2ccc(C(C)C)cc2)cc1 (configuration not stated)
Response line: 1.05

Prompt line: Determine its reported composite z-score: NC(=O)NCC#Cc1ccc2c(c1)[C@]1(C(=O)N2)[C@H](c2ccc(OCCO)cc2)N2[C@H](c3ccccc3)[C@H](c3ccccc3)OC(=O)[C@H]2[C@@H]1C(=O)NC[C@H](O)c1ccccc1
Response line: 0.902

Where do the numbers come from? From PubChem BioAssay.
